- Experimental system: intracellular GCN2 (phosphorylation of the GCN2 substrate eIF2α) (Homo sapiens (Human), UniProt Q9P2K8)
- Sequence (Q9P2K8 whole entry): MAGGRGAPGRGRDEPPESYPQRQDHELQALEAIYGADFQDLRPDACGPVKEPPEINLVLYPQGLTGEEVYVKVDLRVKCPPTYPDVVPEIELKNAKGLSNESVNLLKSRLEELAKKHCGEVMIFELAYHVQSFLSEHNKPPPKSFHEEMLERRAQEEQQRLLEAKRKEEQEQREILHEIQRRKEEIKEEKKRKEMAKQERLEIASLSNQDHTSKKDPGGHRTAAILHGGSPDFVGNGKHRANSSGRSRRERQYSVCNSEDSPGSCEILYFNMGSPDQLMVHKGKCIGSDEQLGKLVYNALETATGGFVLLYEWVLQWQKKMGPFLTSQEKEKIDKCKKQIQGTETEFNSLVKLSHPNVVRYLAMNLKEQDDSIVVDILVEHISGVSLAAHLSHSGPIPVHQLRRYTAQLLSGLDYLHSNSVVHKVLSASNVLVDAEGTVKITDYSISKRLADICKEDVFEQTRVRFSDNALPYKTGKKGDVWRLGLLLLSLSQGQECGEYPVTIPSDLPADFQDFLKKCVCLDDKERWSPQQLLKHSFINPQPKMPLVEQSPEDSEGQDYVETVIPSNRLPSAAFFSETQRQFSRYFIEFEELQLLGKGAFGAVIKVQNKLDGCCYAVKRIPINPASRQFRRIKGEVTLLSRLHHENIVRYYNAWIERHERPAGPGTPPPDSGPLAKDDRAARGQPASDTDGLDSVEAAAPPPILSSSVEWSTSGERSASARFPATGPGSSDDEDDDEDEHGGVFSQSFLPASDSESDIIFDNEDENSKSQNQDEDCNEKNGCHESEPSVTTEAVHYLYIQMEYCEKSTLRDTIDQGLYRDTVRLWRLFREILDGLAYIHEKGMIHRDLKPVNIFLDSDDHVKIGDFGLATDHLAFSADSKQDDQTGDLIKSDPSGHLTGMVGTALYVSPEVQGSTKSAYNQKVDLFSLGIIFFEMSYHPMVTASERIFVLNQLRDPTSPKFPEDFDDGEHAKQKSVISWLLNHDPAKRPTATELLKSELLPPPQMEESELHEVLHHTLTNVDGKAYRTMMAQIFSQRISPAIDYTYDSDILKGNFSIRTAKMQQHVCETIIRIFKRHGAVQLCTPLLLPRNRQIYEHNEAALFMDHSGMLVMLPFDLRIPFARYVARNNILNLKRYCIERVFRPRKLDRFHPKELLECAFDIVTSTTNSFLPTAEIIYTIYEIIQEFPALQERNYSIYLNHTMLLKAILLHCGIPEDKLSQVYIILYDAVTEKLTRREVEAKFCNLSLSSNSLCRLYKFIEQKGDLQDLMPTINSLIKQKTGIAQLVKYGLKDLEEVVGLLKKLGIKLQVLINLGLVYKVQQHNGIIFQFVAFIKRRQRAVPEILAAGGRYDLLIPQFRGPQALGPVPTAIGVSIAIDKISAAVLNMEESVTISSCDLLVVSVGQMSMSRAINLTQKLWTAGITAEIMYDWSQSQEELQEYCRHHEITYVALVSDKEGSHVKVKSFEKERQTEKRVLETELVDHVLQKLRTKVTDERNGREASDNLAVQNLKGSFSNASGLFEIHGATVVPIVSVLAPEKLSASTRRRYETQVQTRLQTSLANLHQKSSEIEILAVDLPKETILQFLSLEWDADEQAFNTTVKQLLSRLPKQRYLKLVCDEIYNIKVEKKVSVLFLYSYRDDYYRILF
- Measurement protocol: GCN2 Cellular Inhibition Assay (AlphaScreen SureFire P-eIF2α Ser51, borrelidin-treated U2OS cells)
- Type: cell-based
- Measurement setup: 10 μM borrelidin, 1 h, phosphorylated eIF2α Ser51, read-out: GCN2 Biomarker (IC50)
# maps each entry to its IC50

Past entries and their recorded results:
FC(F)(F)c1ccc2ncc(-c3nccc(N4CCN[C@H](c5cn[nH]c5)C4)n3)n2c1 [I-532] : 500 to 5000 nM
NC(=O)[C@H]1CN(c2ccnc(-c3cnc4ccc(C(F)(F)F)cn34)n2)CCN1C1CC1 [I-323] : 500 to 5000 nM
CC1CN(c2nccc(-c3cnc4ccc(C(F)(F)F)cn34)n2)C(C)C(c2cn[nH]c2)N1 (single isomer, unassigned) [I-33] : > 5000 nM

So for Cc1[nH]ncc1[C@H]1C[C@@H](N=S(C)(C)=O)CN(c2ccnc(-c3cnc4ccc(C(F)(F)F)cn34)n2)C1 [I-342] , the logged IC50 turned out to be < 500 nM

So for C[C@@H]1C[C@H](N=S(C)(C)=O)CN(c2ccnc(-c3cnc4cc(F)c(Br)cn34)n2)C1 [I-317] , the logged IC50 turned out to be 500 to 5000 nM

So for C[C@H]1CN(c2ccnc(-c3cnc4ccc(C(F)(F)F)cn34)n2)[C@@H](C)[C@@H](c2cn[nH]c2)N1 (stereo in doubt) [I-37] , the logged IC50 turned out to be < 500 nM

So for CC1CN(c2ccnc(-c3cnc4ccc(Cl)cn34)n2)CC(c2cn[nH]c2)N1 (stereo not drawn) [I-266] , the logged IC50 turned out to be < 500 nM

So for Cc1cc(-c2cnc3ccc(Cl)cn23)nc(N2C[C@@H](C)C[C@@H](c3cn[nH]c3)C2)n1 [I-208] , the logged IC50 turned out to be < 500 nM

* * *

- Experimental system: intracellular GCN2 (phosphorylation of the GCN2 substrate eIF2α) (Homo sapiens (Human))
- Measurement protocol: GCN2 Cellular Inhibition Assay (AlphaScreen SureFire P-eIF2α Ser51, borrelidin-treated U2OS cells)
- Format: cell-based
- Measurement setup: 10 μM borrelidin, 1 h, phosphorylated eIF2α Ser51, read-out: GCN2 Biomarker (IC50)
Measurement label: IC50

NC(=O)[C@@H]1CN(c2ccnc(-c3cnc4ccc(C(F)(F)F)cn34)n2)CCN1C1CC1 [I-324] : > 5000 nM
CC1CC(C(N)=O)C(C)N(c2ccnc(-c3cnc4ccc(Cl)cn34)n2)C1 (centres unmarked) [I-50] : 500 to 5000 nM
CC1[C@@H](c2cn[nH]c2)NCCN1c1ccnc(-c2cnc3ccc(C(F)(F)F)cn23)n1 (some centres unmarked) [I-310] : < 500 nM
OCC1CC(N2CCN(c3ccnc(-c4cnc5ccc(C(F)(F)F)cn45)n3)CC2c2cn[nH]c2)C1 (centres unmarked) [I-390] : < 500 nM
C[C@H]1C[C@@H](c2cn[nH]c2)CN(c2nccc(-c3cnc4ccc(C(F)(F)F)cn34)n2)C1 (mixture of isomers) [I-114] : < 500 nM

So for C[C@@H]1C[C@@H](c2cn[nH]c2)CN(c2nccc(-c3cnc4ccc(N5CC(F)(F)C5)cn34)n2)C1 [I-261] , the logged IC50 turned out to be < 500 nM

So for C[C@@H]1C[C@H](c2cn[nH]c2)CN(c2nccc(-c3cnc4ccc(C(F)(F)F)cn34)n2)C1 [I-136] , the logged IC50 turned out to be < 500 nM

So for C[C@H]1CN(c2nccc(-c3cnc4ccc(C(F)(F)F)cn34)n2)C[C@H](c2cn[nH]c2)O1 [I-134] , the logged IC50 turned out to be < 500 nM

* * *

- Experimental system: intracellular GCN2 (phosphorylation of the GCN2 substrate eIF2α) (Homo sapiens (Human))
- Measurement protocol: GCN2 Cellular Inhibition Assay (AlphaScreen SureFire P-eIF2α Ser51, borrelidin-treated U2OS cells)
- Type: cell-based
- Measurement setup: 10 μM borrelidin, 1 h, phosphorylated eIF2α Ser51, read-out: GCN2 Biomarker (IC50)
# maps each entry to its IC50

Past entries and their recorded results:
Cc1[nH]ncc1[C@H]1C[C@@H](O)CN(c2ccnc(-c3cnc4ccc(C(F)(F)F)cn34)n2)C1 [I-315] : < 500 nM
NC(=O)[C@H]1CCCN(c2nccc(-c3cnc4ccc(Cl)cn34)n2)C1 [I-183] : < 500 nM
CC1CC1CN1CCN(c2ccnc(-c3cnc4ccc(C(F)(F)F)cn34)n2)CC1c1cn[nH]c1 (centres unmarked) [I-473] : < 500 nM
C[C@H]1CN(c2nccc(-c3cnc4ccc(C(F)(F)F)cn34)n2)[C@@H](C)C(c2cn[nH]c2)N1 (some centres unmarked) [I-170] : < 500 nM
CC1(C)CN(c2ccnc(-c3cnc4ccc(C(F)(F)F)cn34)n2)CCN1C(=O)C1CCC(=O)CC1 [I-492] : 500 to 5000 nM

So for C[C@@H]1C[C@H](N=S(C)(C)=O)CN(c2ccnc(-c3cnc4ccc(C#N)cn34)n2)C1 [I-262] , the logged IC50 turned out to be > 5000 nM

So for CC1(C)CN(c2ccnc(-c3cnc4ccc(C(F)(F)F)cn34)n2)CCN1S(C)(=O)=O [I-339] , the logged IC50 turned out to be 500 to 5000 nM

So for C[C@H]1CN(c2nccc(-c3cnc4cc(F)c(Cl)cn34)n2)C[C@@H](c2cn[nH]c2)O1 [I-270] , the logged IC50 turned out to be < 500 nM

* * *

# maps each entry to its IC50
- Experimental system: intracellular GCN2 (phosphorylation of the GCN2 substrate eIF2α) (Homo sapiens (Human), UniProt Q9P2K8)
- Measurement protocol: GCN2 Cellular Inhibition Assay (AlphaScreen SureFire P-eIF2α Ser51, borrelidin-treated U2OS cells)
- Type: cell-based
- Measurement setup: 10 μM borrelidin, 1 h, phosphorylated eIF2α Ser51, read-out: GCN2 Biomarker (IC50)
- Method: Compounds can be screened for their ability to inhibit intracellular GCN2 using an AlphaScreen assay (Perkin Elmer) to detect phosphorylation of the GCN2 substrate eIF2α in borrelidin-treated cells. […] Plates are analyzed on an Alpha Technology-compatible PHERAstar FS plate reader (BMG Labtech Version 1.14) to quantify phosphorylated eIF2α Ser51 levels. The percentage inhibition of phosphorylated eIF2α is calculated by comparison to control wells stimulated with borrelidin alone.

Cc1[nH]ncc1C1CC(F)CN(c2ccnc(-c3cnc4cc(F)c(Cl)cn34)n2)C1 (stereo not drawn) : 500 to 5000 nM
NC(=O)[C@@H]1CN(c2ccnc(-c3cnc4cc(F)c(Cl)cn34)n2)CCN1C1CC1 : 500 to 5000 nM
NC(=O)C1CN(c2ccnc(-c3cnc4cc(F)c(Cl)cn34)n2)CCN1C1CC1 (stereo not drawn) : 500 to 5000 nM
COc1cc(-c2cnc3ccc(Cl)cn23)nc(N2C[C@H](C)C[C@H](c3cn[nH]c3)C2)n1 : 500 to 5000 nM
FC(F)(F)c1ccc2ncc(-c3nccc(N4CCN(C[C@@H]5CC56CCOCC6)[C@@H](c5cn[nH]c5)C4)n3)n2c1 : < 500 nM

So for CC(=O)N1CCN(c2ccnc(-c3cnc4ccc(C(F)F)cn34)n2)CC1 , the logged IC50 turned out to be 500 to 5000 nM

So for Clc1ccc2ncc(-c3nccc(N4CCNC(c5cn[nH]c5)C4)n3)n2c1 (stereo not drawn) , the logged IC50 turned out to be 500 to 5000 nM

So for COCCn1cc([C@H]2C[C@H](C)CN(c3nccc(-c4cnc5ccc(C(F)(F)F)cn45)n3)C2)cn1 , the logged IC50 turned out to be < 500 nM

So for C[C@@H]1CN(c2ccnc(-c3cnc4ccc(C(F)(F)F)cn34)n2)C[C@H](C)N1C(=O)CC1COC1 , the logged IC50 turned out to be 500 to 5000 nM

So for C[C@@H]1C[C@H](N=S(C)(C)=O)CN(c2nccc(-c3cnc4cc(Cl)c(Cl)cn34)n2)C1 , the logged IC50 turned out to be 500 to 5000 nM

So for NC(=O)[C@H]1CCCN(c2ccnc(-c3cnc4cc(F)c(Cl)cn34)n2)C1 , the logged IC50 turned out to be < 500 nM

So for C[C@@H]1CN(c2ccnc(-c3cnc4ccc(C(F)(F)F)cn34)n2)C[C@H](C)N1C(=O)C1CC1 , the logged IC50 turned out to be 500 to 5000 nM

So for Cc1[nH]ncc1[C@H]1CN(c2nccc(-c3cnc4ccc(Cl)cn34)n2)C[C@H](C)O1 (stereo in doubt) , the logged IC50 turned out to be 500 to 5000 nM

So for CC(C)n1ccc(C(=O)N2[C@H](C)CN(c3ccnc(-c4cnc5ccc(C(F)(F)F)cn45)n3)C[C@@H]2C)n1 , the logged IC50 turned out to be 500 to 5000 nM

So for Cc1[nH]ncc1C1NCCN(c2ccnc(-c3cnc4ccc(C(F)(F)F)cn34)n2)C1C (stereo not drawn) , the logged IC50 turned out to be 500 to 5000 nM
